Readings of Emax for the listed binders
measurement_target: human FGFR1c + KLB receptor complex on HEK293 iLite FGF21 reporter cells (human, UniProt P11362 22-822; Q86Z14 1-1044)
Sequence (P11362 22-822, chain 1 of 2): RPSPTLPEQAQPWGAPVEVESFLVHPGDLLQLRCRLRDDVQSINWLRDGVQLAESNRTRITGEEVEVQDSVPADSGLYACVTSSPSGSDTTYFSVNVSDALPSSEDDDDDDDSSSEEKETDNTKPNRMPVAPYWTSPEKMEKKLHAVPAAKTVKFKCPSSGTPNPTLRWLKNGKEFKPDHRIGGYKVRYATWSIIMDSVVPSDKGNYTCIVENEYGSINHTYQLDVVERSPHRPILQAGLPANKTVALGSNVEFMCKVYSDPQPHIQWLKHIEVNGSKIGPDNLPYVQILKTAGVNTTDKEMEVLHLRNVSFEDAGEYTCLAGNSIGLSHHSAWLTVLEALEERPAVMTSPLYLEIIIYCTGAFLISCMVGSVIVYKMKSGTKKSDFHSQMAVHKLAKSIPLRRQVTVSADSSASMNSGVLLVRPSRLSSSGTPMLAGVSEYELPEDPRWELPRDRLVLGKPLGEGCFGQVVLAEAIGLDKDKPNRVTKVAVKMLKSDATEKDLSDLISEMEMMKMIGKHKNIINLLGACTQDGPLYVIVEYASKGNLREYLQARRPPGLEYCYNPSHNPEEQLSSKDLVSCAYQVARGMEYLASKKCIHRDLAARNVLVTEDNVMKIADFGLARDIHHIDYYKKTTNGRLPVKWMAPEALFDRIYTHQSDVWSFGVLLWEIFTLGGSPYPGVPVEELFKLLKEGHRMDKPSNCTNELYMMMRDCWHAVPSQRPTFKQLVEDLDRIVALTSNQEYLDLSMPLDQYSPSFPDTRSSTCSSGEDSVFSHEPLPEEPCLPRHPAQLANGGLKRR
Sequence (Q86Z14 whole entry, chain 2 of 2): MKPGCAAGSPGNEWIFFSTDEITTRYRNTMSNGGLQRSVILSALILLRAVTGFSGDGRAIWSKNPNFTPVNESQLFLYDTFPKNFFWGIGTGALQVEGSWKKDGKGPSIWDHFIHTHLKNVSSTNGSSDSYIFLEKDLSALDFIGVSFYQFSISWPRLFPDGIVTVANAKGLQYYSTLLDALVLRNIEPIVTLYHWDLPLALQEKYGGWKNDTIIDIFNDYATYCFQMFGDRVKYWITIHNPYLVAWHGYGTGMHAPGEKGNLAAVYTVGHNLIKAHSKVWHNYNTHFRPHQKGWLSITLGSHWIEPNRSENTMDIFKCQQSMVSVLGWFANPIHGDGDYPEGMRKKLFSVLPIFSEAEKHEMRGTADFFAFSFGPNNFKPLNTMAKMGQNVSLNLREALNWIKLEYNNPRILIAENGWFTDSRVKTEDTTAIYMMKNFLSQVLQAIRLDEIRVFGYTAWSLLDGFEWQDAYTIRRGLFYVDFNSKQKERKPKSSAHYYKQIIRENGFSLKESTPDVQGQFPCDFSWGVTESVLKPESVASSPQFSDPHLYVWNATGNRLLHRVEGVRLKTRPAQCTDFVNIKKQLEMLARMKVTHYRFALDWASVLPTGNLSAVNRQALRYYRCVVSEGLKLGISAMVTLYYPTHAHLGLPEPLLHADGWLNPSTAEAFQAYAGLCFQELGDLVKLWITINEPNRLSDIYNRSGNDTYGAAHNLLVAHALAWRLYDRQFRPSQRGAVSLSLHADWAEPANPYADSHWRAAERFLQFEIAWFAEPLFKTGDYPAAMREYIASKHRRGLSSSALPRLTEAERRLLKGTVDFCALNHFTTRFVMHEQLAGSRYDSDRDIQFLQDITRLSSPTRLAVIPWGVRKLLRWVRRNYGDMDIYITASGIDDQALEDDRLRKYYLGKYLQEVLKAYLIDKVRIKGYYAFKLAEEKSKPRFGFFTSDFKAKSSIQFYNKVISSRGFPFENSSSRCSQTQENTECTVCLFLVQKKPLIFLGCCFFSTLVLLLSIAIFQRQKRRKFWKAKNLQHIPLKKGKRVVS
protocol_notes: cell-based or functional assay
Report the value in % with no unit label.

[Q] Looking for the measured Emax of Ab0316 (antibody, IgG4, V domains shown) VH: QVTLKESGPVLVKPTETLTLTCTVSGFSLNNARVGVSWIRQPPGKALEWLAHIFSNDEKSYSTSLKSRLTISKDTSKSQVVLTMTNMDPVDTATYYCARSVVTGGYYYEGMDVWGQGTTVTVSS VL: SYVLTQPPSVSVAPGQTARITCGGSNIGSESVHWYQQKPGQAPVLVVYYDSDRPSGIPERFSGSNSGNTATLTISRVEAGDEADYYCQVWTGESDHVVFGGGTKLTVLG , can you help?
[A] 730

[Q] Looking for the measured Emax of Ab0355 (antibody, IgG4, V domains shown, IgG4 PE) VH: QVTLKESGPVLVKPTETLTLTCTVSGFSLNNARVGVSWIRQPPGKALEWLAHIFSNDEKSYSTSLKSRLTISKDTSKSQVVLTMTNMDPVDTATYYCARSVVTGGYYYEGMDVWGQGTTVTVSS VL: SYVLTQPPSVSVAPGQTARITCGGSNIGSESVHWYQQKPGQAPVLVVYEYSDRPSGIPERFSGSNSGNTATLTISRVEAGDEADYYCQVWEGSSDHVVFGGGTKLTVLG , can you help?
[A] 829

[Q] Looking for the measured Emax of Ab0455 (antibody, IgG4, V domains shown) VH: QVTLKESGPVLVKPTETLTLTCTVSGFSLSYARVGVSWIRQPPGKALEWLAHIFSNDEKSYSTSLKSRLTISKDTSKSQVVLTMTNMDPVDTATYYCARSVVTGGYYYEGMDVWGQGTTVTVSS VL: SYVLTQPPSVSVAPGQTARITCGGSNIGSESVHWYQQKPGQAPVLVVYSESDRPSGIPERFSGSNSGNTATLTISRVEAGDEADYYCQVWEGESDHVVFGGGTKLTVLG , can you help?
[A] 1020

[Q] Looking for the measured Emax of Ab0424 (antibody, IgG4, V domains shown) VH: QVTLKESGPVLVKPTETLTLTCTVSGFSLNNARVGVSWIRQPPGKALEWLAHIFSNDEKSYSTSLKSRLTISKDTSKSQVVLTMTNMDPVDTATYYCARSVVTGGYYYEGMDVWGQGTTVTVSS VL: SYVLTQPPSVSVAPGQTARITCGGSNIGSESVHWYQQKPGQAPVLVVYSSSDRPSGIPERFSGSNSGNTATLTISRVEAGDEADYYCQVWHGASDHVVFGGGTKLTVLG , can you help?
[A] 1390

[Q] Looking for the measured Emax of Ab0350 (antibody, IgG4, V domains shown) VH: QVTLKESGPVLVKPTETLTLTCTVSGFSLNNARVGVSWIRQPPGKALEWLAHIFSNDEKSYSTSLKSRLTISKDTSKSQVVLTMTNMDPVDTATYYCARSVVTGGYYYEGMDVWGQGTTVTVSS VL: SYVLTQPPSVSVAPGQTARITCGGSNIGSESVHWYQQKPGQAPVLVVYEESDRPSGIPERFSGSNSGNTATLTISRVEAGDEADYYCQVWAGSSDHVVFGGGTKLTVLG , can you help?
[A] 493

[Q] Looking for the measured Emax of Ab0458 (antibody, IgG4, V domains shown) VH: QVTLKESGPVLVKPTETLTLTCTVSGFSLTNARVGVSWIRQPPGKALEWLAHIFSNDEKSYSTSLKSRLTISKDTSKSQVVLTMTNMDPVDTATYYCARSVVTGGYYYEGMDVWGQGTTVTVSS VL: SYVLTQPPSVSVAPGQTARITCGGSNIGSESVHWYQQKPGQAPVLVVYSASDRPSGIPERFSGSNSGNTATLTISRVEAGDEADYYCQVWEGESDHVVFGGGTKLTVLG , can you help?
[A] 1430
